Each recorded value in this set is attributed to patent US20230286958A1.

List of IC50 values.
Target: Human plasma kallikrein (Homo sapiens (Human))
Sequence (P03952 391-638): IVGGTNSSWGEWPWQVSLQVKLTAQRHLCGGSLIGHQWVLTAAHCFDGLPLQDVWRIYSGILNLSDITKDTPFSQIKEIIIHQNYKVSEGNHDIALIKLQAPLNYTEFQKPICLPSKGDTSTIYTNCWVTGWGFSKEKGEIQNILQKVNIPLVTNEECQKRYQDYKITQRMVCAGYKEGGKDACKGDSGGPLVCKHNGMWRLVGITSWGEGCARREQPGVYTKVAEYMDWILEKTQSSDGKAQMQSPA
Sequence (P03952 20-390 partner): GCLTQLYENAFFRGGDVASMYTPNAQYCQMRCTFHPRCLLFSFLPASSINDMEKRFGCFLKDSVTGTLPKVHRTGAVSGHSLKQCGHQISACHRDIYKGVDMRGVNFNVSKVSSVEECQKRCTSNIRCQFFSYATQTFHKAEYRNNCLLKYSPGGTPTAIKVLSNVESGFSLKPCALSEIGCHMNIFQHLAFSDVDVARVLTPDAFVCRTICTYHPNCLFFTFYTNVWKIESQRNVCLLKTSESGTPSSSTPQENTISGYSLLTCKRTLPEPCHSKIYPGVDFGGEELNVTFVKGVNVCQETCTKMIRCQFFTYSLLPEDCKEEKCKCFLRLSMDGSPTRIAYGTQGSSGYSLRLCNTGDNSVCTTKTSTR
Experiment: Kallikrein Assay (fluorogenic substrate Acetyl-K-P-R-AFC)
Assay type: biochemical
Conditions: Plasma Kallikrein (PKal)
Numeric only. Scale: nM

Problem: Requested field: IC50. Item: Cc1cc(C(C)n2cc(NC(=O)c3nc(-c4c(C(F)F)ccc(Cl)c4F)cnc3C)cn2)cnc1N1C[C@H]2C[C@H]2C1=O (single isomer, unassigned) [Example 119]
Solution: 0.6

Problem: Using the record for Cc1ncc(-c2c(C(F)F)ccc(Cl)c2F)nc1C(=O)Nc1cnn(C(C)c2cnc(N3C[C@H]4C[C@H]4C3=O)c3c2OC(F)(F)O3)c1 (single isomer, unassigned) [Example 247] , report its IC50.
Solution: 0.8

New cases:
Problem: Sample Cc1c(C(C)n2cc(NC(=O)c3nc(-c4c(C(F)F)ccc(Cl)c4F)cnc3CO)cn2)cnc(N2C[C@H]3C[C@H]3C2=O)c1C (single isomer, unassigned) [Example 201] — what was its IC50?
Solution: 0.4

Problem: If you can, please state the reported IC50 value of Cc1ncc(-c2c(C(F)F)ccc(Cl)c2F)nc1C(=O)Nc1cnn(C(C)c2ccc(N3CC4CC4C3=O)nc2)c1 (single isomer, unassigned) [Example 76] .
Solution: 43

Problem: Can you share its IC50? I mean this compound: CC(c1cnc(N2C[C@H]3C[C@H]3C2=O)nc1CO)n1cc(NC(=O)c2cncc(-c3c(C(F)F)ccc(Cl)c3F)n2)cn1 (stereo in doubt) [Example 169]
Solution: 15.2
